Source of measurements: patent US5451599A

- Tested on: PZ
- assay.details: 48 h incubation with the salts: cell fluorescence, living cells, multiplication coefficient (Table 1)
- Assay type: cell-based
- measurement.context: 48 hs, 50 mcg/ml
observed.property: Percentage of living cells /P %/ (%)

[[record]]
compound = "CC1=C(CCC(=O)O)c2cc3[nH]c(cc4nc(cc5[nH]c(cc1n2)c(C(C)NC(Cc1ccccc1)C(=O)O)c5C)C(C(C)NC(Cc1ccccc1)C(=O)O)=C4C)c(C)c3CCC(=O)O.N=C(N)NCCC[C@H](N)C(=O)O.N=C(N)NCCC[C@H](N)C(=O)O (centres unmarked)"
experimental_target = "PZ"
value_measured = 8


---

- System: MA-104 (Rhesus monkey embryo kidney cancer cells)
- assay.details: 48 h incubation with the salts: cell fluorescence, living cells, multiplication coefficient (Table 1)
- Assay type: cell-based
- measurement.context: 48 hs, 50 mcg/ml
I would appreciate it if you labelled entries T when Percentage of living cells /P %/ is 20% or higher, otherwise F.

[[record]]
compound = "CC1=C(CCC(=O)O)c2cc3[nH]c(cc4nc(cc5[nH]c(cc1n2)c(C(C)NC(CC(=O)O)C(=O)O)c5C)C(C(C)NC(CC(=O)O)C(=O)O)=C4C)c(C)c3CCC(=O)O.N=C(N)NCCC[C@H](N)C(=O)O.N=C(N)NCCC[C@H](N)C(=O)O (stereo not drawn)"
assigned_category = "F"

[[record]]
compound = "CC1=C(CCC(=O)O)c2cc3[nH]c(cc4nc(cc5[nH]c(cc1n2)c(C(C)NC(CS)C(=O)O)c5C)C(C(C)NC(CS)C(=O)O)=C4C)c(C)c3CCC(=O)O.N=C(N)NCCC[C@H](N)C(=O)O.N=C(N)NCCC[C@H](N)C(=O)O (stereo not drawn)"
assigned_category = "F"

[[record]]
compound = "CSCCC(NC(C)C1=C(C)c2cc3[nH]c(cc4nc(cc5[nH]c(cc1n2)c(C)c5C(C)NC(CCSC)C(=O)O)C(C)=C4CCC(=O)O)c(CCC(=O)O)c3C)C(=O)O.N=C(N)NCCC[C@H](N)C(=O)O.N=C(N)NCCC[C@H](N)C(=O)O (stereo not drawn)"
assigned_category = "T"

[[record]]
compound = "CC1=C(CCC(=O)O)c2cc3[nH]c(cc4nc(cc5[nH]c(cc1n2)c(C(C)NC(CCC(=O)O)C(=O)O)c5C)C(C(C)NC(CCC(=O)O)C(=O)O)=C4C)c(C)c3CCC(=O)O.N=C(N)NCCC[C@H](N)C(=O)O.N=C(N)NCCC[C@H](N)C(=O)O (stereo not drawn)"
assigned_category = "F"

[[record]]
compound = "CC1=C(CCC(=O)O)c2cc3[nH]c(cc4nc(cc5[nH]c(cc1n2)c(C(C)NC(CCCCN)C(=O)O)c5C)C(C(C)NC(CCCCN)C(=O)O)=C4C)c(C)c3CCC(=O)O.N=C(N)NCCC[C@H](N)C(=O)O.N=C(N)NCCC[C@H](N)C(=O)O (stereo not drawn) [PP/Lys/2 /Arg/2, l-arginine di/N-lysyl/-protoporphyrinate]"
assigned_category = "F"

[[record]]
compound = "CC1=C(CCC(=O)O)c2cc3[nH]c(cc4nc(cc5[nH]c(cc1n2)c(C(C)NC(C)C(=O)O)c5C)C(C(C)NC(C)C(=O)O)=C4C)c(C)c3CCC(=O)O.N=C(N)NCCC[C@H](N)C(=O)O.N=C(N)NCCC[C@H](N)C(=O)O (stereo not drawn)"
assigned_category = "T"

[[record]]
compound = "CC1=C(CCC(=O)O)c2cc3[nH]c(cc4nc(cc5[nH]c(cc1n2)c(C(C)NC(CO)C(=O)O)c5C)C(C(C)NC(CO)C(=O)O)=C4C)c(C)c3CCC(=O)O.N=C(N)NCCC[C@H](N)C(=O)O.N=C(N)NCCC[C@H](N)C(=O)O (stereo not drawn) [PP/Ser/2 /Arg/2, l-arginine di/N-seryl/-protoporphyrinate]"
assigned_category = "F"

[[record]]
compound = "CC1=C(CCC(=O)O)c2cc3[nH]c(cc4nc(cc5[nH]c(cc1n2)c(C(C)NC(Cc1ccccc1)C(=O)O)c5C)C(C(C)NC(Cc1ccccc1)C(=O)O)=C4C)c(C)c3CCC(=O)O.N=C(N)NCCC[C@H](N)C(=O)O.N=C(N)NCCC[C@H](N)C(=O)O (stereo not drawn)"
assigned_category = "T"

[[record]]
compound = "CC1=C(CCC(=O)O)c2cc3[nH]c(cc4nc(cc5[nH]c(cc1n2)c(C(C)NC(Cc1c[nH]c2ccccc12)C(=O)O)c5C)C(C(C)NC(Cc1c[nH]c2ccccc12)C(=O)O)=C4C)c(C)c3CCC(=O)O.N=C(N)NCCC[C@H](N)C(=O)O.N=C(N)NCCC[C@H](N)C(=O)O (stereo not drawn)"
assigned_category = "T"

